# STUDY_TARGET: Melanocortin receptor 3 (Mus musculus)
# TEST_DETAILS: Effective concentration for mouse Melanocortin-3 receptor
ASSAY_METRIC: EC50 (µM)
Please reply with the bare figure in µM and do not write the unit itself.

SMILES_NOTATION: C[C@@H]1NC(=O)[C@H](CC(N)=O)NC(=O)[C@H](Cc2c[nH]c3ccccc23)NC(=O)[C@H](CCCN=C(N)N)NC(=O)[C@@H](Cc2ccccc2)NC(=O)[C@H](Cc2c[nH]cn2)NC(=O)[C@@H](NC(=O)[C@@H](N)Cc2ccc(O)cc2)CC(=O)N([C@@H](Cc2ccc(O)cc2)C(N)=O)[C@@](C)(C(=O)O)NC(=O)[C@@H](Cc2ccccc2)NC1=O
ASSAY_METRIC: EC50
TEST_VALUE: 0.014

Continue with the molecule presented below.
Exam item: Quick one: EC50 for C[C@@H]1NC(=O)[C@H](CC(N)=O)NC(=O)[C@@H]2CCCN2C(=O)[C@H](CCCN=C(N)N)NC(=O)[C@@H](Cc2ccccc2)NC(=O)[C@H](Cc2c[nH]cn2)NC(=O)[C@@H](NC(=O)[C@@H](N)Cc2ccc(O)cc2)CC(=O)N([C@@H](Cc2ccc(O)cc2)C(N)=O)[C@@](C)(C(=O)O)NC(=O)[C@H](Cc2ccccc2)NC1=O ?
Marked response: 39.2

====

# STUDY_TARGET: Melanocortin receptor 3 (Mus musculus)
# TEST_DETAILS: Effective concentration for mouse Melanocortin-3 receptor
ASSAY_METRIC: EC50 (nM)
# output: bare number, implied unit nM

SMILES_NOTATION: C[C@@H]1NC(=O)[C@H](CC(N)=O)NC(=O)[C@H](Cc2c[nH]c3ccccc23)NC(=O)[C@H](CCCN=C(N)N)NC(=O)[C@@H](Cc2cccc3ccccc23)NC(=O)[C@H](Cc2c[nH]cn2)NC(=O)[C@@H](NC(=O)[C@@H](N)Cc2ccc(O)cc2)CC(=O)N([C@@H](Cc2ccc(O)cc2)C(N)=O)[C@@](C)(C(=O)O)NC(=O)[C@H](Cc2ccccc2)NC1=O
UNIT_TAG: nM
EC50: 320

SMILES_NOTATION: C[C@@H]1NC(=O)[C@H](CC(N)=O)NC(=O)[C@H](Cc2c[nH]c3ccccc23)NC(=O)[C@H](CCCN=C(N)N)NC(=O)[C@@H](Cc2ccccc2)NC(=O)[C@H](C)NC(=O)[C@@H](NC(=O)[C@@H](N)Cc2ccc(O)cc2)CC(=O)N([C@@H](Cc2ccc(O)cc2)C(N)=O)[C@@](C)(C(=O)O)NC(=O)[C@H](Cc2ccccc2)NC1=O
UNIT_TAG: nM
EC50: 29

// switching to the query compound
Exam item: Would you kindly share the measured EC50 for C[C@@H]1NC(=O)[C@H](CC(N)=O)NC(=O)[C@H](Cc2c[nH]c3ccccc23)NC(=O)[C@H](CCCN=C(N)N)NC(=O)[C@@H](Cc2ccccc2)NC(=O)[C@H](Cc2c[nH]cn2)NC(=O)[C@@H](NC(=O)[C@@H](N)Cc2ccc(O)cc2)CC(=O)N([C@@H](Cc2ccc(O)cc2)C(N)=O)[C@@](C)(C(=O)O)NC(=O)[C@H](Cc2ccccc2)NC1=O ?
Marked response: 0.97

====

# STUDY_TARGET: UniProt:P33033
# TEST_DETAILS: Effective concentration for mouse Melanocortin-3 receptor
ASSAY_METRIC: EC50 (µM)
The figure you give is taken to be in µM; do not add the unit.

Exam item: Quick one: EC50 of C[C@@H]1NC(=O)[C@H](CC(N)=O)NC(=O)[C@H](Cc2c[nH]c3ccccc23)NC(=O)[C@@H]2CCCN2C(=O)[C@@H](Cc2ccccc2)NC(=O)[C@H](Cc2c[nH]cn2)NC(=O)[C@@H](NC(=O)[C@@H](N)Cc2ccc(O)cc2)CC(=O)N([C@@H](Cc2ccc(O)cc2)C(N)=O)[C@@](C)(C(=O)O)NC(=O)[C@H](Cc2ccccc2)NC1=O ?
Marked response: 17.3

====

# STUDY_TARGET: Melanocortin receptor 4 (Mus musculus, UniProt P56450)
# Sequence (P56450 whole entry): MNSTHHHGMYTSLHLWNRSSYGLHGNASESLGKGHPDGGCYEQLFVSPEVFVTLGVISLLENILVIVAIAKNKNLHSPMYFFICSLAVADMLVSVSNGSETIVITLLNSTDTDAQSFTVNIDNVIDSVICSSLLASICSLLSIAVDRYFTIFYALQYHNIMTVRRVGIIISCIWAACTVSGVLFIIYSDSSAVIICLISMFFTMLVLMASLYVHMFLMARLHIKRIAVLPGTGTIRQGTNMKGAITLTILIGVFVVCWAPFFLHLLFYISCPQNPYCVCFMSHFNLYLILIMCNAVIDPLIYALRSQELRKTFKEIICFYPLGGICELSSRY
# TEST_DETAILS: Effective concentration for mouse Melanocortin-4 receptor
ASSAY_METRIC: pEC50
Notebook: values listed as pEC50 are -log10 of the concentration (mol/L).

The cases that follow already have their pEC50 on record.
COMPOUND: C[C@@H]1NC(=O)[C@H](CC(N)=O)NC(=O)[C@H](Cc2c[nH]c3ccccc23)NC(=O)[C@H](CCCN=C(N)N)NC(=O)[C@@H](Cc2ccccc2)NC(=O)C2(CCc3ccccc3C2)NC(=O)[C@@H](NC(=O)[C@@H](N)Cc2ccc(O)cc2)CC(=O)NC[C@@H](C(=O)N[C@@H](Cc2ccc(O)cc2)C(N)=O)NC(=O)[C@H](Cc2ccccc2)NC1=O (mixture of isomers)
pEC50: 6.94
//
COMPOUND: C[C@@H]1NC(=O)[C@H](CC(N)=O)NC(=O)[C@H](Cc2c[nH]c3ccccc23)NC(=O)[C@H](CCCCN)NC(=O)[C@@H](Cc2ccccc2)NC(=O)[C@H](Cc2c[nH]cn2)NC(=O)[C@@H](NC(=O)[C@@H](N)Cc2ccc(O)cc2)CC(=O)NC[C@@H](C(=O)N[C@@H](Cc2ccc(O)cc2)C(N)=O)NC(=O)[C@H](Cc2ccccc2)NC1=O
pEC50: 5.07
//
COMPOUND: C[C@@H]1NC(=O)[C@H](CC(N)=O)NC(=O)[C@@H]2CCCN2C(=O)[C@H](CCCNC(=N)N)NC(=O)[C@@H](Cc2ccccc2)NC(=O)[C@H](Cc2c[nH]cn2)NC(=O)[C@@H](NC(=O)[C@@H](N)Cc2ccc(O)cc2)CC(=O)NC[C@@H](C(=O)N[C@@H](Cc2ccc(O)cc2)C(N)=O)NC(=O)[C@H](Cc2ccccc2)NC1=O
pEC50: 5.14

Now let's try a different one.
Exam item: Entry C[C@@H]1NC(=O)[C@H](CC(N)=O)NC(=O)[C@H](C)NC(=O)[C@H](CCCNC(=N)N)NC(=O)[C@@H](Cc2ccccc2)NC(=O)[C@H](Cc2c[nH]cn2)NC(=O)[C@@H](NC(=O)[C@@H](N)Cc2ccc(O)cc2)CC(=O)NC[C@@H](C(=O)N[C@@H](Cc2ccc(O)cc2)C(N)=O)NC(=O)[C@H](Cc2ccccc2)NC1=O : reported pEC50 = ?
Marked response: 6.15

====

# STUDY_TARGET: Melanocortin receptor 3 (Mus musculus, UniProt P33033)
# Sequence (P33033 whole entry): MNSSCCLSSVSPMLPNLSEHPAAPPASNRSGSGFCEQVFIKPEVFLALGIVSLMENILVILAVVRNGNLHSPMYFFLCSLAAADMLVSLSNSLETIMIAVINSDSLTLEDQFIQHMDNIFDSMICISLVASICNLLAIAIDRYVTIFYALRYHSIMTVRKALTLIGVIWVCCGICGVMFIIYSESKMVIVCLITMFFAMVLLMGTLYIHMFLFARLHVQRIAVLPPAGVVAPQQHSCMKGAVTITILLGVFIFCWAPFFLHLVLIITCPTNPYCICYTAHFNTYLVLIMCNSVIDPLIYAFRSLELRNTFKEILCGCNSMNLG
# TEST_DETAILS: Effective concentration for mouse Melanocortin-3 receptor
ASSAY_METRIC: pEC50
Conceptually, pEC50 converts a concentration in mol/L into minus its log10.

Worked set:
SMILES_NOTATION: C[C@@H]1NC(=O)[C@H](CC(N)=O)NC(=O)[C@H](Cc2ccc3ccccc3c2)NC(=O)[C@H](CCCN=C(N)N)NC(=O)[C@@H](Cc2ccccc2)NC(=O)[C@H](Cc2c[nH]cn2)NC(=O)[C@@H](NC(=O)[C@@H](N)Cc2ccc(O)cc2)CC(=O)N([C@@H](Cc2ccc(O)cc2)C(N)=O)[C@@](C)(C(=O)O)NC(=O)[C@H](Cc2ccccc2)NC1=O
pEC50: 8.25
--
SMILES_NOTATION: C[C@@H]1NC(=O)[C@H](CC(N)=O)NC(=O)[C@@H](Cc2ccc3ccccc3c2)NC(=O)[C@H](CCCN=C(N)N)NC(=O)[C@@H](Cc2ccccc2)NC(=O)[C@H](Cc2c[nH]cn2)NC(=O)[C@@H](NC(=O)[C@@H](N)Cc2ccc(O)cc2)CC(=O)N([C@@H](Cc2ccc(O)cc2)C(N)=O)[C@@](C)(C(=O)O)NC(=O)[C@H](Cc2ccccc2)NC1=O
pEC50: 8.19

Next compound, pEC50 to be filled in.
Exam item: // lookup pEC50 for C[C@@H]1NC(=O)[C@H](CC(N)=O)NC(=O)[C@H](Cc2c[nH]c3ccccc23)NC(=O)[C@H](CCCCN)NC(=O)[C@@H](Cc2ccccc2)NC(=O)[C@H](Cc2c[nH]cn2)NC(=O)[C@@H](NC(=O)[C@@H](N)Cc2ccc(O)cc2)CC(=O)N([C@@H](Cc2ccc(O)cc2)C(N)=O)[C@@](C)(C(=O)O)NC(=O)[C@H](Cc2ccccc2)NC1=O
Marked response: 4.51

====

# STUDY_TARGET: Melanocyte-stimulating hormone receptor (Mus musculus, UniProt Q01727)
# Sequence (Q01727 whole entry): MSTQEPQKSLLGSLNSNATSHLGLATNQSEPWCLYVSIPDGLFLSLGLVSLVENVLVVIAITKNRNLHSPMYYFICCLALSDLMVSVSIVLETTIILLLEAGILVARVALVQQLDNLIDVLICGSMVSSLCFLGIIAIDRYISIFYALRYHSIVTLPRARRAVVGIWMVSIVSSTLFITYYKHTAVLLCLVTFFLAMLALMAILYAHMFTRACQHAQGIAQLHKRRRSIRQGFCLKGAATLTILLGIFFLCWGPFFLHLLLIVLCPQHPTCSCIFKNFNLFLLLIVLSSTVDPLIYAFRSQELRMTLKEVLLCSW
# TEST_DETAILS: Effective concentration for mouse Melanocortin-1 receptor
ASSAY_METRIC: EC50 (nM)
# unit: nM | format: bare number

Exam item: Fill in the recorded EC50 for this compound, with Melanocyte-stimulating hormone receptor (Mus musculus, UniProt Q01727) as test system: C[C@@H]1NC(=O)[C@H](CC(N)=O)NC(=O)[C@H](Cc2c[nH]c3ccccc23)NC(=O)[C@H](CCCCN)NC(=O)[C@@H](Cc2ccccc2)NC(=O)[C@H](Cc2c[nH]cn2)NC(=O)[C@@H](NC(=O)[C@@H](N)Cc2ccc(O)cc2)CC(=O)NC[C@@H](C(=O)N[C@@H](Cc2ccc(O)cc2)C(N)=O)NC(=O)[C@H](Cc2ccccc2)NC1=O
Marked response: 680

Exam item: Melanocyte-stimulating hormone receptor (Mus musculus, UniProt Q01727) / EC50 / C[C@@H]1NC(=O)[C@H](CC(N)=O)NC(=O)[C@H](C)NC(=O)[C@H](CCCNC(=N)N)NC(=O)[C@@H](Cc2ccccc2)NC(=O)[C@H](Cc2c[nH]cn2)NC(=O)[C@@H](NC(=O)[C@@H](N)Cc2ccc(O)cc2)CC(=O)NC[C@@H](C(=O)N[C@@H](Cc2ccc(O)cc2)C(N)=O)NC(=O)[C@H](Cc2ccccc2)NC1=O : value?
Marked response: 350

Exam item: Look up EC50 with Melanocyte-stimulating hormone receptor (Mus musculus, UniProt Q01727) for this compound: C[C@@H]1NC(=O)[C@H](CC(N)=O)NC(=O)[C@H](Cc2c[nH]c3ccccc23)NC(=O)[C@H](CCCN=C(N)N)NC(=O)[C@@H](Cc2ccccc2)NC(=O)C2(CCc3ccccc3C2)NC(=O)[C@@H](NC(=O)[C@@H](N)Cc2ccc(O)cc2)CC(=O)NC[C@@H](C(=O)N[C@@H](Cc2ccc(O)cc2)C(N)=O)NC(=O)[C@H](Cc2ccccc2)NC1=O (mixture of isomers)
Marked response: 690

Exam item: Give EC50 (Melanocyte-stimulating hormone receptor (Mus musculus, UniProt Q01727)) of the following compound: C[C@@H]1NC(=O)[C@H](CC(N)=O)NC(=O)[C@@H]2CCCN2C(=O)[C@H](CCCNC(=N)N)NC(=O)[C@@H](Cc2ccccc2)NC(=O)[C@H](Cc2c[nH]cn2)NC(=O)[C@@H](NC(=O)[C@@H](N)Cc2ccc(O)cc2)CC(=O)NC[C@@H](C(=O)N[C@@H](Cc2ccc(O)cc2)C(N)=O)NC(=O)[C@H](Cc2ccccc2)NC1=O
Marked response: 1000
